Taken from ChEMBL document CHEMBL1201862.

Biological target: Large T antigen (Simian virus 40);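 also: Confirmatory-stage PubChem screen for compounds that inhibit SV40 T antigen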
Sequence (P03070 whole entry): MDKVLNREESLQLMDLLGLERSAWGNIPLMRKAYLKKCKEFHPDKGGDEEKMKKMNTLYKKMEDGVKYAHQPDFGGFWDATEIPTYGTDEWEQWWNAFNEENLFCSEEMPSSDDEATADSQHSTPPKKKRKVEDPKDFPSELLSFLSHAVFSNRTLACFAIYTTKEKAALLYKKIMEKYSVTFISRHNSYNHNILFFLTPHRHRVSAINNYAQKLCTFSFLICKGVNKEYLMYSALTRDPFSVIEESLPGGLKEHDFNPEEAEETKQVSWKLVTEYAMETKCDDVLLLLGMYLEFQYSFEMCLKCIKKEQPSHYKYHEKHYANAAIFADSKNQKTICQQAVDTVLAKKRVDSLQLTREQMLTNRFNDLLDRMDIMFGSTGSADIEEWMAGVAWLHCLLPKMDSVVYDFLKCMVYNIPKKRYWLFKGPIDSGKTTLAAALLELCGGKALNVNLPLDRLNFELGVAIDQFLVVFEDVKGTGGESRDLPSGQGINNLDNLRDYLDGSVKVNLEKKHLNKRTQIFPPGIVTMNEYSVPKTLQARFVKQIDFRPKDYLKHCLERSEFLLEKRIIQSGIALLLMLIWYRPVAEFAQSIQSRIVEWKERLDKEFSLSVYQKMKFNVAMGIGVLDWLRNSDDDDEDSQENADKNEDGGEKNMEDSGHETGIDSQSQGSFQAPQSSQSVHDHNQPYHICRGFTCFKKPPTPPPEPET
Format: functional, Betapolyomavirus macacae
Active and inactive are the calls of the source.
Each entry below carries its recorded IC50.

Use the examples below as a reference point.
>  <smilesRepr>
O=C(Cc1nnc(NC(=O)c2ccccc2)s1)N/N=C\c1ccc(O)c(O)c1

>  <IC50>
20.8 µM (active)

$$$$
>  <smilesRepr>
O=C1NN(c2ccccc2)C(=O)/C1=C\c1ccc(-c2cc([N+](=O)[O-])ccc2O)o1

>  <IC50>
20.7 µM (active)

$$$$

`CN(C)S(=O)(=O)c1cccc(-n2sc3ccccc3c2=O)c1` has a reported IC50 of 13.3 µM (active)

`O=C(O)CCNc1ccc(NCCC(=O)O)c2c1C(=O)c1ccccc1C2=O` has a reported IC50 of 26.7 µM (active)

====

Each entry below carries its recorded EC50.
Molecular target: Luciferin 4-monooxygenase (Photinus pyralis)
Sequence (P08659 whole entry): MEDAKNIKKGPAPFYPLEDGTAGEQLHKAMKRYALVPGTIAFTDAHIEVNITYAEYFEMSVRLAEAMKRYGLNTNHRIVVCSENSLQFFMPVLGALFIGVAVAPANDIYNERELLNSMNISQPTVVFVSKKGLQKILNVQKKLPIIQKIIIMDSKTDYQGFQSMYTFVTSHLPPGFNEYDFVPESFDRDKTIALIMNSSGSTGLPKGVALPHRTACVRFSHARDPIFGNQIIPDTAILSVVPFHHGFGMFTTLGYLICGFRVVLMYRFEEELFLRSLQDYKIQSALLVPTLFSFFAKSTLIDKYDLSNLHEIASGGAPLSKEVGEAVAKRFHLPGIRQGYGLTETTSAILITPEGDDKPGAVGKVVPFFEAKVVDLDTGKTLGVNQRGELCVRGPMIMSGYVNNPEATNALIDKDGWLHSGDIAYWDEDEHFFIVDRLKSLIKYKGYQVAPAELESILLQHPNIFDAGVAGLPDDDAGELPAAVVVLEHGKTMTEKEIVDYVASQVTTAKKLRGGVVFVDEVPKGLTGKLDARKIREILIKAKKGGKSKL
Assay: firefly luciferase enzyme inhibitors, dose response, biochemical, luminescence (AID 1891)
Active and inactive are the calls of the source.

Use the examples below as a reference point.
>  <molecule>
Cc1nnc2n(Cc3ccccc3)c(=O)c3c4c(sc3n12)COC(C(C)C)C4 (stereo unspecified)

>  <systemUnderTest>
Luciferin 4-monooxygenase (Photinus pyralis)

>  <EC50>
> 112 µM (not active)

$$$$
>  <molecule>
COCCCn1c(=O)/c(=C\c2ccccc2OC(C)C)s/c1=C(/C#N)C(=O)Nc1ccc(C(=O)O)cc1

>  <systemUnderTest>
Luciferin 4-monooxygenase (Photinus pyralis)

>  <EC50>
> 112 µM (not active)

$$$$
>  <molecule>
O=S(=O)(c1cccc(-c2nnc(SC(F)F)n2-c2ccccc2)c1)N1CCCCC1

>  <systemUnderTest>
Luciferin 4-monooxygenase (Photinus pyralis)

>  <EC50>
> 112 µM (not active)

$$$$

`O=C(/C=C/Nc1ccc(F)cc1F)c1ccco1` has a reported EC50 of 0.812 µM (active)

`COC(=O)c1oc2ccc(Br)cc2c1-n1cccc1` has a reported EC50 of > 112 µM (not active)

`CCOC(=O)c1ccc(COC(=O)c2ccc(-c3nnc(-c4ccccc4)o3)cc2)o1` has a reported EC50 of 28.5 µM (active)

Cc1cc(OC(C)C(=O)NCc2ccncc2)c2c3c(c(=O)oc2c1)CCC3 (stereo unspecified) has a reported EC50 of > 112 µM (not active)

Cc1cc(-c2nnc(CCC(=O)NC(C)c3cccc4ccccc34)o2)no1 (stereo unspecified) has a reported EC50 of > 112 µM (not active)

`COC(=O)c1sc(N)c(C(=O)OC)c1COC(=O)CNS(=O)(=O)c1ccc(C)cc1` has a reported EC50 of > 112 µM (not active)

`Nc1ccc(-c2nc3ccccc3o2)cc1` has a reported EC50 of 51.5 µM (active)

`O=C(/C=C/Nc1ccccc1F)c1cccs1` has a reported EC50 of 0.641 µM (active)

====

Target: Alkaline phosphatase, tissue-nonspecific isozyme (Homo sapiens, UniProt P05186)
Sequence (P05186 whole entry): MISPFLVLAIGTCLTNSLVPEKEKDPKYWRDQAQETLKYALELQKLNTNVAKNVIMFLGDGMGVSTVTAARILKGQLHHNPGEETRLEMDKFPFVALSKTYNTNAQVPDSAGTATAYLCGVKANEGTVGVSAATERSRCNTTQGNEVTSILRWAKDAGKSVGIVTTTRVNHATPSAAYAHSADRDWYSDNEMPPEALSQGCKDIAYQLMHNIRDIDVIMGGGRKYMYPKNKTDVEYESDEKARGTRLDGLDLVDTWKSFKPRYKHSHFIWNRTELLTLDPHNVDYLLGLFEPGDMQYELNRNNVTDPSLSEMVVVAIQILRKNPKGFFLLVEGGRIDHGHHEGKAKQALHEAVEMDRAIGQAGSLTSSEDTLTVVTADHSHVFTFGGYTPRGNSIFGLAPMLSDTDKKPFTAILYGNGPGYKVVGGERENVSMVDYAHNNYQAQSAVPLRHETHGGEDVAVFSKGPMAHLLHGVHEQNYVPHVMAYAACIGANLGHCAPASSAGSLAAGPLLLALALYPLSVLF
Experiment: human TNAP enzyme inhibitors, SAR follow-up, biochemical, luminescent, dose response (AID 1056)
Activity calls are given as the source filed them.
Tick one outcome: active, inactive

A selection of reference data follows.
>  <smilesRepr>
COC(=O)c1ccccc1NC(=O)CSc1nnc(-c2ccccc2Cl)[nH]1

>  <assignedLabel>
active

$$$$
>  <smilesRepr>
COc1cc(C(=O)CSc2nc(C)cc(C)n2)ccc1O

>  <assignedLabel>
inactive

$$$$
>  <smilesRepr>
O=C(c1cc(-c2cc(F)c(Cl)cc2Cl)[nH]n1)N1CCCCC1

>  <assignedLabel>
active

$$$$

Field: next molecule
Query: Just curious, what result did `COc1ccc(C(=O)CSc2nc(C)cc(C)n2)cc1` get here?
Response: inactive
